test system: RPMI-8226 leukemia; test: NCI tumour cell line growth inhibition, 48 h; in the data active = GI50 below about 0.43 µM; inactive = the rest
Your response should consist of one outcome taken from class 1 = active, class 0 = inactive

Example results:
CCCCC[C@@H](C/C=C/CCC(=O)NC/C(=C/Cl)[C@H]1C(=O)C(C)(C)C(=O)[C@@H](C)[C@@]1(C)O)OC = class 0
CCN(CC)CCOc1ccc2c(C)c(C(=O)OC)oc2c1C(=O)/C=C/c1ccc(OC)cc1 = class 0
O=C(/C=C(\[O-])c1ccccc1)CCCCCCC(=O)/C=C(\[O-])c1ccccc1.O=C(/C=C(\[O-])c1ccccc1)CCCCCCC(=O)/C=C(\[O-])c1ccccc1.O=C(/C=C(\[O-])c1ccccc1)CCCCCCC(=O)/C=C(\[O-])c1ccccc1.[Nd+3].[Nd+3] = class 0

Q. Please share the test call associated with Cn1ccnc1C(=O)/C=C/c1ccc(C(=O)Nc2c(F)c(F)c(F)c(F)c2F)cc1 .
A. class 0

Q. In this assay, the call recorded for [Cl-].[Gd+3].[O-]/N=C(\c1ccccc1)c1ccccn1.[O-]/N=C(\c1ccccc1)c1ccccn1.[O-]/N=C(\c1ccccc1)c1ccccn1 was what?
A. class 0

Q. # lookup: test call for OCCCCC#Cc1ccccc1C#Cc1ccc(C(F)(F)F)cc1
A. class 0

Q. Short answer needed: outcome of this test for COc1cccc(C2C(C#N)=C(N)Oc3cc4c(cc32)OCO4)c1 (configuration not stated) ?
A. class 1

Q. // param item: C=C(Cl)[C@@](Cl)(CBr)CC[C@@H](Br)C(C)(C)Cl ; yields the recorded call
A. class 1

Q. Lab log entry: COC(=O)[C@]1(C)CCC[C@]2(C)[C@@H]1CCC13C[C@@H](C=CO1)[C@@H](C)CC32O (some centres not stated) — outcome as called in the assay?
A. class 0

Q. Outcome logged for Oc1ccccc1C=Nc1nc(OCc2ccccc2)nc2[nH]ncc12 in this assay:
A. class 0

Q. What call does the record list for COc1cc(/C=C2\C(=O)N(C)c3ccccc32)cc(OC)c1OC ?
A. class 0

Q. What did this assay record as the result for COc1ccc(Cc2nc3cc(OC)c(OC)cc3c(=O)[nH]2)cc1 ?
A. class 0

Q. For COc1ccc(OCC(O)CN2CCN(c3ccc(Cl)cc3)CC2)cc1 (configuration not stated) , what call appears in the results of this test?
A. class 0

Q. For COc1c(O)c2c3c(c1OC)-c1ccccc1CC3N(S(=O)(=O)c1ccc(C)cc1)CC2 (configuration not stated) , which call appears in the assay record?
A. class 0

Q. Hi, do you know how CNCc1cccc2c1OCCOCCOCCC(C)S(=O)(=O)c1ccc(cc1)-c1cnc(N)c(n1)C(=O)N2 (configuration not stated) came out in this test?
A. class 0

Q. Test call, this compound: CC1(C)CC[C@]2(C(=O)O)CC[C@]3(C)C(=CC[C@@H]4[C@@]5(C)C/C(=C/c6ccco6)C(=O)C(C)(C)[C@@H]5CC[C@]43C)[C@@H]2C1
A. class 0

Q. Record request — test call for COC(=O)c1ccc2[nH]c(O)c(C(=Nc3ccc(N(C)C(=O)CN4CCN(C)CC4)cc3)c3ccccc3)c2c1
A. class 0

---

Recorded measurements of TGI, one per entry
tested on: XF 498 CNS; assay: NCI tumour cell line growth inhibition, 48 h
I only need the number, in µM, no unit after it.

Record excerpt, results attached:
Cc1ccc(NCCN(C)C)c2c(=O)c3cc(O)ccc3sc12 = 17.2
c1ccc2c3c([nH]c2c1)C1C2CCCCN2C(c2ccncc2)N1CC3 (configuration not stated) = 98

Note: attention shifts to another entry.
Q. Given the compound CC(C)=CCC/C(C)=C/C=C/C(C)=C/C1C[C@@]2(C(O)O1)[C@H](CCCO)/C(=C(/C)C=O)CC[C@]2(C)O (some centres not stated) , what is its reported TGI?
A. 32.7

Source listed as PubChem BioAssay (NCI).
